- assay: Cytotoxicity against human MDA231 cells assessed as growth inhibition up to 20 uM after 48 hrs by MTT assay
- Format: cell-based, MDA-MB-231
- reported_conditions: read-out: GI
measured_quantity: inhibition at 48 h (%)

{"columns": ["chemical_structure", "value_units", "recorded_number"],
 "data": [
  ["Fc1ccc2c(c1)ncc1c(CNCc3ccccc3)cc(-c3ccccc3F)n12", "%", -8.04],
  ["CCCCNCc1cc(-c2ccccc2F)n2c1cnc1cc(Br)ccc12", "%", 70.8],
  ["CC(C)NCc1cc(-c2ccccc2F)n2c1cnc1cc(Cl)ccc12", "%", 71.7],
  ["Fc1ccccc1-c1cc(CNCc2ccccc2)c2cnc3cc(Cl)ccc3n12", "%", 27.8],
  ["Fc1ccccc1-c1cc(CNCc2ccccc2)c2cnc3cc(Br)ccc3n12", "%", 32.1],
  ["CCCCNCc1cc(-c2ccccc2F)n2c1cnc1cc(Cl)ccc12", "%", 74.5]
]}

###

# inhibition annotations
- measurement_target: UniProtKB P9WGR1
- Sequence (P9WGR1 whole entry): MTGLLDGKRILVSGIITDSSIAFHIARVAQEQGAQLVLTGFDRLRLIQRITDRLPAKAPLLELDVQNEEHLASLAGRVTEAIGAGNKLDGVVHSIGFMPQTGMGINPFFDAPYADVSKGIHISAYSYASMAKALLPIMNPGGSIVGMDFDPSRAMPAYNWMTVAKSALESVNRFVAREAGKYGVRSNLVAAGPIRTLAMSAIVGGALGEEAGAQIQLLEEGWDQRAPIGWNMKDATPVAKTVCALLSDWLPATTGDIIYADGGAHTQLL
- assay: Inhibition of Mycobacterium tuberculosis InhA at 100 uM using trans-2-decenoyl-N-acetylcysteamine as substrate preincubated for 1 hr followed by substrate addition measured every 30 secs for 5 mins

{"columns": ["chemical_structure", "inhibition / %"],
 "data": [
  ["Fc1ccccc1-c1cc(CNCc2ccccc2)c2cnc3ccccc3n12", 22.1],
  ["CCCCNCc1cc(-c2ccccc2F)n2c1cnc1ccccc12", 14.4],
  ["CCCCNCc1cc(-c2ccccc2F)n2c1cnc1cc(Br)ccc12", 50.2],
  ["CC(C)NCc1cc(-c2ccccc2F)n2c1cnc1cc(Cl)ccc12", 27.4],
  ["CCCNCc1cc(-c2ccccc2F)n2c1cnc1ccccc12", 5.21],
  ["Fc1ccccc1-c1cc(CNCCc2ccc(Br)cc2)c2cnc3ccccc3n12", 17.3]
]}

###

- assay: Cytotoxicity against human MDA231 cells assessed as growth inhibition up to 20 uM after 48 hrs by MTT assay
- Assay type: cell-based, MDA-MB-231
- reported_conditions: read-out: GI

{"columns": ["chemical_structure", "inhibition at 48 h"],
 "data": [
  ["Fc1ccccc1-c1cc(CNCCc2ccc(Br)cc2)c2cnc3ccccc3n12", "76.1%"],
  ["Fc1ccccc1-c1cc(CNCCc2ccc(Br)cc2)c2cnc3cc(Cl)ccc3n12", "70.5%"],
  ["CCCNCc1cc(-c2ccccc2F)n2c1cnc1cc(Cl)ccc12", "74.5%"],
  ["COc1ccc(CCNCc2cc(-c3ccccc3F)n3c2cnc2cc(Cl)ccc23)cc1OC", "76.4%"]
]}

###

- measurement_target: UniProtKB P9WGR1
- assay: Inhibition of Mycobacterium tuberculosis InhA at 100 uM using trans-2-decenoyl-N-acetylcysteamine as substrate preincubated for 1 hr followed by substrate addition measured every 30 secs for 5 mins

{"columns": ["chemical_structure", "measurement_target", "inhibition"],
 "data": [
  ["Fc1ccccc1-c1cc(CNCCc2ccc(Br)cc2)c2cnc3cc(Cl)ccc3n12", "UniProtKB P9WGR1", "64.9%"],
  ["CCCCNCc1cc(-c2ccccc2F)n2c1cnc1cc(F)ccc12", "UniProtKB P9WGR1", "7.88%"],
  ["Fc1ccccc1-c1cc(CNCc2ccccc2)c2cnc3cc(Cl)ccc3n12", "UniProtKB P9WGR1", "37%"],
  ["COc1ccc(CCNCc2cc(-c3ccccc3F)n3c2cnc2ccccc23)cc1OC", "UniProtKB P9WGR1", "6.28%"],
  ["Fc1ccccc1-c1cc(CNCc2ccccc2)c2cnc3cc(Br)ccc3n12", "UniProtKB P9WGR1", "62%"],
  ["CCCCNCc1cc(-c2ccccc2F)n2c1cnc1cc(Cl)ccc12", "UniProtKB P9WGR1", "33.3%"],
  ["CC(C)NCc1cc(-c2ccccc2F)n2c1cnc1ccccc12", "UniProtKB P9WGR1", "17.3%"],
  ["CCCNCc1cc(-c2ccccc2F)n2c1cnc1cc(Cl)ccc12", "UniProtKB P9WGR1", "24.8%"],
  ["Fc1ccc2c(c1)ncc1c(CNCc3ccccc3)cc(-c3ccccc3F)n12", "UniProtKB P9WGR1", "48.5%"],
  ["COc1ccc(CCNCc2cc(-c3ccccc3F)n3c2cnc2cc(Cl)ccc23)cc1OC", "UniProtKB P9WGR1", "40.4%"]
]}

###

- assay: Cytotoxicity against human SKOV3 cells assessed as growth inhibition up to 20 uM after 48 hrs by MTT assay
- Assay type: cell-based, SK-OV-3
- reported_conditions: read-out: GI

{"columns": ["chemical_structure", "inhibition at 48 h / %"],
 "data": [
  ["Fc1ccccc1-c1cc(CNCCc2ccc(Br)cc2)c2cnc3cc(Cl)ccc3n12", 71.8],
  ["Fc1ccccc1-c1cc(CNCCc2ccc(Br)cc2)c2cnc3ccccc3n12", 69.3],
  ["Fc1ccccc1-c1cc(CNCc2ccccc2)c2cnc3cc(Br)ccc3n12", 13.3],
  ["CC(C)NCc1cc(-c2ccccc2F)n2c1cnc1cc(Cl)ccc12", 76.4],
  ["COc1ccc(CCNCc2cc(-c3ccccc3F)n3c2cnc2cc(Cl)ccc23)cc1OC", 84.4],
  ["CCCNCc1cc(-c2ccccc2F)n2c1cnc1cc(Cl)ccc12", 77],
  ["Fc1ccccc1-c1cc(CNCc2ccccc2)c2cnc3cc(Cl)ccc3n12", 19.4],
  ["CCCCNCc1cc(-c2ccccc2F)n2c1cnc1cc(Cl)ccc12", 75.9],
  ["Fc1ccc2c(c1)ncc1c(CNCc3ccccc3)cc(-c3ccccc3F)n12", -7.09],
  ["CCCCNCc1cc(-c2ccccc2F)n2c1cnc1cc(Br)ccc12", 66.3]
]}
